biological target: amyloid beta 1-40 oligomer (UniProt P05067 P05067:672-711); experiment: ELONA; oligomer immobilised on plate, room temp; conditions: tags: Peptide Institute peptide; oligomerised from HFIP/water; chain copies: oligomer (stated); label: 5'-FITC; G4
Sequence (P05067 672-711, one chain of several): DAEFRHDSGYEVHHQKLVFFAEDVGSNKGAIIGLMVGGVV

{"binder": "TTTTTGGTGCGGCGGGACTAGTGGGTGTG (structured_DNA) [tT-SO530]", "Kd (nM)": 9.03}
